Experiment summary: Cmax in Sprague-Dawley rat at 19 mg/kg, po administered via gavage by LC-MS/MS analysis
Assay type: ADME, organism-based
Set-up: dose 19 mg/kg, route po
Applied conditions: in vivo
Assay readout: Cmax

stdin: So what does the record say about Cmax for CN1Cc2c(Cl)cc(Cl)cc2C(c2ccc(S(=O)(=O)NCCOCCOCCOCCNC(=O)c3ccc(C(=O)NCCOCCOCCOCCNS(=O)(=O)c4ccc(C5CN(C)Cc6c(Cl)cc(Cl)cc65)cc4)cc3)cc2)C1 (racemic) ?
stdout: < 3 ng/mL

---

Target: Sodium/hydrogen exchanger 3 (Rattus norvegicus, UniProt P26433)
Sequence (P26433 whole entry): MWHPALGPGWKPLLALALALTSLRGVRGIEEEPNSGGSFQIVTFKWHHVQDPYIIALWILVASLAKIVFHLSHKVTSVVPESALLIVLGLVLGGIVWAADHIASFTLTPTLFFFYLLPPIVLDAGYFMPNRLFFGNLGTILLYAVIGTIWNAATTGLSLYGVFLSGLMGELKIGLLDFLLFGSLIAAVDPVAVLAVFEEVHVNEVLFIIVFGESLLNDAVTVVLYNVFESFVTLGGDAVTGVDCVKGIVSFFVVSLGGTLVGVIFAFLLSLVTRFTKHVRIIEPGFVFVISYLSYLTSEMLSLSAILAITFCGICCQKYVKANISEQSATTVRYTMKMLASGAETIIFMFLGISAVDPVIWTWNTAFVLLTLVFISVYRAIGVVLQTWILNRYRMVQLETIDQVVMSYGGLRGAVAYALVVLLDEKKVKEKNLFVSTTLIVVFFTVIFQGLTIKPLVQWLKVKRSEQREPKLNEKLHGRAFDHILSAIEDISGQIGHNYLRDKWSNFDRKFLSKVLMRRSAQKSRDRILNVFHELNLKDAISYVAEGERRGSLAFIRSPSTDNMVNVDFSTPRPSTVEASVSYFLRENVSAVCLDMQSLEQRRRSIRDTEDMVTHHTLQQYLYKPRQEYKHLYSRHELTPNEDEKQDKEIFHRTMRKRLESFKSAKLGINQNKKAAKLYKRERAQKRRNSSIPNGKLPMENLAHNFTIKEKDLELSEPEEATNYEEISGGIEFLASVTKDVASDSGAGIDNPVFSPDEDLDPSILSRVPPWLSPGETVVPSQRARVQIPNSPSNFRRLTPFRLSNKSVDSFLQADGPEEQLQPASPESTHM
Experiment summary: Inhibition of rat NHE3 expressed in opossum kidney cells assessed as reduction in Na-HEPES buffer-mediated pH recovery in presence of NEH1 inhibitor ethyl isopropyl amiloride by BCECF-AM dye based fluorescence assay
So I've got a bunch of molecules here, and I need their pIC50 values.
Recall that pIC50 is obtained by taking minus log10 of the concentration measured in molar.

stdin: Entry CN1Cc2c(Cl)cc(Cl)cc2C(c2ccc(S(=O)(=O)NCCOCCOCCNC(=O)c3ccc(C(=O)NCCOCCOCCNS(=O)(=O)c4ccc(C5CN(C)Cc6c(Cl)cc(Cl)cc65)cc4)cc3)cc2)C1 (racemic) : reported pIC50 = ?
stdout: 6.40

stdin: Query: pIC50; subject: CN1Cc2c(Cl)cc(Cl)cc2C(c2cccc(NC(=O)[C@H](O)[C@@H](O)[C@H](O)[C@H](O)CO)c2)C1 (mixture of isomers)
stdout: 7.40

stdin: State the recorded pIC50 for this entry: CN1Cc2c(Cl)cc(Cl)cc2C(c2ccc(S(=O)(=O)NCCOCCOCCOCCNC(=O)c3ccc(C(=O)NCCOCCOCCOCCNS(=O)(=O)c4ccc(C5CN(C)Cc6c(Cl)cc(Cl)cc65)cc4)cc3)cc2)C1 (racemic)
stdout: 7.90

stdin: pIC50 lookup needed for CN1Cc2c(Cl)cc(Cl)cc2[C@H](c2cccc(NC(=O)[C@H](O)[C@@H](O)[C@H](O)[C@H](O)CO)c2)C1 , thanks.
stdout: 7.40

stdin: Reported pIC50, molecule CN1Cc2c(Cl)cc(Cl)cc2C(c2cccc(S(=O)(=O)NCCOCCOCCOCCNC(=O)NCCOCCOCCOCCNS(=O)(=O)c3cccc(C4CN(C)Cc5c(Cl)cc(Cl)cc54)c3)c2)C1 (racemic) : ____
stdout: 7.00

stdin: Consider the molecule CN1Cc2c(Cl)cc(Cl)cc2C(c2cccc(S(=O)(=O)NCCCS(=O)(=O)O)c2)C1 (racemic) and give its measured pIC50.
stdout: 7.30

stdin: Sample CN1Cc2c(Cl)cc(Cl)cc2C(c2cccc(S(=O)(=O)NCCCP(=O)(O)O)c2)C1 (racemic) — what was its pIC50?
stdout: 7.20

stdin: If you can, please state the reported pIC50 value of CN1Cc2c(Cl)cc(Cl)cc2C(c2cccc(S(=O)(=O)NCCOCCOCCNC(=O)c3ccc(C(=O)NCCOCCOCCNS(=O)(=O)c4cccc(C5CN(C)Cc6c(Cl)cc(Cl)cc65)c4)cc3)c2)C1 (racemic) .
stdout: 5.20

stdin: What does the data say about its pIC50? Entry: CN1Cc2c(Cl)cc(Cl)cc2C(c2cccc(S(=O)(=O)NCCOCCOCCNC(=O)Nc3ccc(NC(=O)NCCOCCOCCNS(=O)(=O)c4cccc(C5CN(C)Cc6c(Cl)cc(Cl)cc65)c4)cc3)c2)C1 (racemic)
stdout: 8.10

---

Experiment summary: In vivo inhibition of NEH3 in Sprague-Dawley rat assessed as sodium excretion in urine at 3 mg/kg, po administered via gavage measured after 16 hrs by ion chromatography relative to control
Design: scale not given: the % may be the effect or the level left
Give measured Activity for each item. Keep answers brief.
Enter your answer as a number in %; do not include the unit.

stdin: // lookup Activity for CN1Cc2c(Cl)cc(Cl)cc2C(c2ccc(S(=O)(=O)NCCOCCOCCOCCNC(=O)NCCOCCOCCOCCNS(=O)(=O)c3ccc(C4CN(C)Cc5c(Cl)cc(Cl)cc54)cc3)cc2)C1 (stereo not drawn)
stdout: 25

stdin: Could you tell me which Activity is on file for CN1Cc2c(Cl)cc(Cl)cc2C(c2cccc(S(=O)(=O)NCCOCCOCCNC(=O)Nc3ccc(NC(=O)NCCOCCOCCNS(=O)(=O)c4cccc(C5CN(C)Cc6c(Cl)cc(Cl)cc65)c4)cc3)c2)C1 (racemic) ?
stdout: 32

stdin: Entry CN1Cc2c(Cl)cc(Cl)cc2C(c2ccc(S(=O)(=O)NCCOCCOCCOCCNC(=O)c3ccc(C(=O)NCCOCCOCCOCCNS(=O)(=O)c4ccc(C5CN(C)Cc6c(Cl)cc(Cl)cc65)cc4)cc3)cc2)C1 (racemic) has what Activity?
stdout: 50

---

Kindly state Activity for each of the entries shown.
Experiment summary: In vivo inhibition of NEH3 in Sprague-Dawley rat assessed as sodium excretion in urine at 3 mg/kg, po administered via gavage measured after 16 hrs by ion chromatography relative to control
Parameters: scale not given: the % may be the effect or the level left
Form entry: enter the amount, then its unit.

stdin: Which Activity value belongs to CN1Cc2c(Cl)cc(Cl)cc2C(c2cccc(S(=O)(=O)NCCOCCOCCOCCNC(=O)NCCCCNC(=O)NCCOCCOCCOCCNS(=O)(=O)c3cccc(C4CN(C)Cc5c(Cl)cc(Cl)cc54)c3)c2)C1 (racemic) ?
stdout: 50%

stdin: // Activity lookup, key: CN1Cc2c(Cl)cc(Cl)cc2C(c2ccc(S(=O)(=O)NCCOCCOCCNC(=O)Nc3ccc(NC(=O)NCCOCCOCCNS(=O)(=O)c4ccc(C5CN(C)Cc6c(Cl)cc(Cl)cc65)cc4)cc3)cc2)C1 (racemic)
stdout: 29%

stdin: Any idea what Activity was measured for CN1Cc2c(Cl)cc(Cl)cc2C(c2ccc(S(=O)(=O)NCCOCCOCCNC(=O)c3ccc(C(=O)NCCOCCOCCNS(=O)(=O)c4ccc(C5CN(C)Cc6c(Cl)cc(Cl)cc65)cc4)cc3)cc2)C1 (racemic) ?
stdout: 45%
